Source of measurements: the supplement of paper PMC9233669

tested on: biotinyl-Leu-oxazolone; test: self-aminoacylation, catalytic enhancement (BLO) (fold over background); higher = more active; k-Seq, kA / k0A0; sequences stand for … in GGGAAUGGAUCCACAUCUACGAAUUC…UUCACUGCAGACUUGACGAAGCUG
This sample holds only a part of the variants without activity.
Collected self-aminoacylation values appear next to each entry.
Output: the number by itself.

// self-aminoacylation value for CUACUUCAGACAAGCGGUCUG [Fam1A.1 aminoacylation ribozyme variant] : 0.966

// self-aminoacylation value for CCACACUUUAAGCAAUCGUUC [Fam1B.1 aminoacylation ribozyme variant] : 0.543

// self-aminoacylation value for CUAUUUCAAACAAUUGGUCUG [Fam1A.1 aminoacylation ribozyme variant] : 0.929

More entries:
// self-aminoacylation value for AAGUGUGCUAAUAGUCGCAAG [Fam3.1 aminoacylation ribozyme variant] : 1.36

// self-aminoacylation value for CCACACUUCAAGCGAUCGGUC [Fam1B.1 aminoacylation ribozyme variant] : 0.815

// self-aminoacylation value for AUUCACCUAGGUCGGCGGGUG [Fam2.2 aminoacylation ribozyme variant] : 8.86

// self-aminoacylation value for GCACACUUCAAGCAACCGGUC [Fam1B.1 aminoacylation ribozyme variant] : 2.46

// self-aminoacylation value for AUUCAUCUAGGUCAUCGGGUG [Fam2.2 aminoacylation ribozyme variant] : 9.76
